- TEST_DESCRIPTION: Total AUC in Sprague-Dawley rat at 200 mg/kg, po
- Type: ADME, organism-based
- Set-up: time AUCmax, dose 200 mg/kg, route oral
- CONDITION_INFO: in vivo
PROPERTY_MEASURED: AUC (µM·h)
Express the result in µM·h but write the number alone.

Query (molecule): "O=C(C(=O)N1CCN(C(=O)c2ccccc2)CC1)c1c[nH]c2c(-n3ccnn3)ncc(F)c12" ; field requested: AUC
145

---

- TEST_DESCRIPTION: Volume of distribution in Sprague-Dawley rat at 1 mg/kg, iv
- Format: ADME, organism-based
- Set-up: dose 1 mg/kg, route intravenous
- CONDITION_INFO: in vivo
PROPERTY_MEASURED: Vd (L/kg)
Express the result in L/kg but write the number alone.

Query (molecule): "N[n+]1ccn(-c2ncc(F)c3c(C(=O)C(=O)N4CCN(C(=O)c5ccccc5)CC4)c[nH]c23)n1.O=C([O-])C(F)(F)F" ; field requested: Vd
0.29
